- system-tested: GK (glucokinase, residues 12-465) (Homo sapiens, UniProt P35557)
- Construct: I.D. No. 1 corresponds to residues 12-465 of glucokinase
- Sequence (P35557 with tags, fused parts or gaps isoform P35557-2): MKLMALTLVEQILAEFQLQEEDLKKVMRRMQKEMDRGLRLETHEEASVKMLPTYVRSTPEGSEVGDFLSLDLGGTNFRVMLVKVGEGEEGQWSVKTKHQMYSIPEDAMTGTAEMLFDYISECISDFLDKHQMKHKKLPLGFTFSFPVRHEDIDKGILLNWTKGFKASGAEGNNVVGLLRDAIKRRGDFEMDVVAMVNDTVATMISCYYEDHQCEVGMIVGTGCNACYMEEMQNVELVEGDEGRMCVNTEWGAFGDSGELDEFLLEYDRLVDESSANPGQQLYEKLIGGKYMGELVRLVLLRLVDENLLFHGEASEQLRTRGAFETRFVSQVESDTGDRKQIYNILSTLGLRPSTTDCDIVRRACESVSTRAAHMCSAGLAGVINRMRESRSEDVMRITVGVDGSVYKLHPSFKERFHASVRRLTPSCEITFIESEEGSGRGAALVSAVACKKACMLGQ
- protocol-details: enzymatic glucokinase activity assay (ATP consumption, KinaseGlo luminescence)
- test-conditions: Kact = concentration that displays 50% of the maximal increase in GK activity; 5 μM ATP, 5 mM Glucose, 60 min, room temperature; reported as bins; read-out: pKact
pEC50: −log10 of the molar value.
value-type: pEC50

> print(dat)
                                   compound    test.value
1  Nc1cc(S(=O)(=O)C2CC2)c2cnn([C@@H](CC3CCOCC3)C(=O)Nc3cnccn3)c2n1  5.90 to 6.40
2  COc1ccc2nc(NC(=O)C(CC3CCOCC3)n3cc(S(=O)(=O)C4CC4)cn3)sc2n1 (centres unmarked)        ≤ 4.80
3  Cn1ccc(NC(=O)[C@H](CC2CCOCC2)n2ncc3c(S(=O)(=O)C4CC4)cncc32)n1  5.50 to 5.80
4  N#Cc1cc(S(=O)(=O)C2CC2)c2cnn([C@H](CC3CCOCC3)C(=O)Nc3ncc(F)s3)c2c1  5.50 to 5.80
5  COc1cc(S(=O)(=O)C2CC2)c2cnn(C(CC3CCOCC3)C(=O)Nc3ncc(F)s3)c2c1 (centres unmarked)        ≥ 6.50
6  Cn1ccc(NC(=O)[C@H](CC2CCOCC2)n2ncc3c(S(=O)(=O)C4CC4)c(F)ccc32)n1        ≥ 6.50
7  O=C(Nc1ncc(Cl)s1)C(CC1CCOCC1)n1cc(S(=O)(=O)C2CC2)cn1 (centres unmarked)  4.90 to 5.40
8  O=C(Nc1cnccn1)C(CC1CCOCC1)n1ncc2c(S(=O)(=O)C3CC3)cc(F)cc21 (centres unmarked)  5.50 to 5.80
